// data source = ChEMBL document CHEMBL3885861

Below is a list of entries, each paired with its recorded DBIL value.
- Organism: Rattus norvegicus
- Method Summary: Open TG-GATES - Regimen: Single
- Assay type: toxicity, organism-based, Sprague-Dawley
- Set-up: regimen Single, gender Male, age 6 weeks
- Conditions: in vivo, po, 0 mg/kg, 24 h, tissue Plasma, route gavage, dose level Control
Endpoint Name: DBIL

CN(C)CCC(c1ccc(Cl)cc1)c1ccccn1 (centres undefined) = 0.012 mg/dL
CN1C(=O)CCS(=O)(=O)C1c1ccc(Cl)cc1 (centres undefined) = 0.022 mg/dL
O=C(OC[C@H]1O[C@@H](OC(=O)c2cc(O)c(O)c(OC(=O)c3cc(O)c(O)c(O)c3)c2)[C@H](OC(=O)c2cc(O)c(O)c(OC(=O)c3cc(O)c(O)c(O)c3)c2)[C@@H](OC(=O)c2cc(O)c(O)c(OC(=O)c3cc(O)c(O)c(O)c3)c2)[C@@H]1OC(=O)c1cc(O)c(O)c(OC(=O)c2cc(O)c(O)c(O)c2)c1)c1cc(O)c(O)c(OC(=O)c2cc(O)c(O)c(O)c2)c1 = 0.004 mg/dL
Brc1ccccc1 = 0.004 mg/dL

---

- Organism: Rattus norvegicus
- Method Summary: Open TG-GATES - Regimen: Single
- Assay type: toxicity, organism-based, Sprague-Dawley
- Set-up: regimen Single, gender Male, age 6 weeks
- Conditions: in vivo, po, 1000 mg/kg, 24 h, tissue Blood, route gavage, dose level High
Endpoint Name: Neu (%)

CN/C(=N/CCSCc1nc[nH]c1C)NC#N [CIMETIDINE] = 14.8
O=C(OC[C@H]1O[C@@H](OC(=O)c2cc(O)c(O)c(OC(=O)c3cc(O)c(O)c(O)c3)c2)[C@H](OC(=O)c2cc(O)c(O)c(OC(=O)c3cc(O)c(O)c(O)c3)c2)[C@@H](OC(=O)c2cc(O)c(O)c(OC(=O)c3cc(O)c(O)c(O)c3)c2)[C@@H]1OC(=O)c1cc(O)c(O)c(OC(=O)c2cc(O)c(O)c(O)c2)c1)c1cc(O)c(O)c(OC(=O)c2cc(O)c(O)c(O)c2)c1 [TANNIC ACID] = 15

---

- Organism: Rattus norvegicus
- Method Summary: Open TG-GATES - Regimen: Daily Repeat
- Assay type: toxicity, organism-based, Sprague-Dawley
- Design: regimen Daily Repeat, gender Male, age 6 weeks
- Conditions: in vivo, po, 0 mg/kg, […], tissue Plasma, route gavage, dose level Control, time 7 day
Endpoint Name: Ca (mg/dL)

CN1C(=O)CCS(=O)(=O)C1c1ccc(Cl)cc1 (stereo not given) [CHLORMEZANONE] = 11.6
CN/C(=N/CCSCc1nc[nH]c1C)NC#N [CIMETIDINE] = 10.7
CNC(=C[N+](=O)[O-])NCCSCc1ccc(CN(C)C)o1 [RANITIDINE] = 10.6
Cc1nnc2n1-c1ccc(Cl)cc1C(c1ccccc1Cl)=NC2 [TRIAZOLAM] = 10.9
COC(=O)C1=C(C)NC(C)=C(C(=O)OC)C1c1ccccc1[N+](=O)[O-] [NIFEDIPINE] = 11

---

- Organism: Rattus norvegicus
- Method Summary: Open TG-GATES - Regimen: Daily Repeat
- Assay type: toxicity, organism-based, Sprague-Dawley
- Set-up: regimen Daily Repeat, gender Male, age 6 weeks
- Conditions: in vivo, po, 100 mg/kg, 72 h, tissue Plasma, route gavage, dose level Low, time 3 day
K values, listed per item
Endpoint Name: K (meq/L)

O=C(OC[C@H]1O[C@@H](OC(=O)c2cc(O)c(O)c(OC(=O)c3cc(O)c(O)c(O)c3)c2)[C@H](OC(=O)c2cc(O)c(O)c(OC(=O)c3cc(O)c(O)c(O)c3)c2)[C@@H](OC(=O)c2cc(O)c(O)c(OC(=O)c3cc(O)c(O)c(O)c3)c2)[C@@H]1OC(=O)c1cc(O)c(O)c(OC(=O)c2cc(O)c(O)c(O)c2)c1)c1cc(O)c(O)c(OC(=O)c2cc(O)c(O)c(O)c2)c1 = 4.8
CNC(=C[N+](=O)[O-])NCCSCc1ccc(CN(C)C)o1 = 4.1
CCOc1ccc(NC(C)=O)cc1 = 4.2
Cc1nnc2n1-c1ccc(Cl)cc1C(c1ccccc1Cl)=NC2 = 4
COC(=O)C1=C(C)NC(C)=C(C(=O)OC)C1c1ccccc1[N+](=O)[O-] = 4.5
CN/C(=N/CCSCc1nc[nH]c1C)NC#N = 4.2
